Tested on: A549
experiment: NCI tumour cell line growth inhibition, 48 h
Activity calls are given as the source filed them. No stated cut-off is given here; in the data, active = GI50 up to about 1.1 µM and inactive = higher.
Some compounds, each annotated with its measured GI50.

compound: ClC1=C(Cc2ccccc2)Cc2ccc3c(c21)CCC3
GI50: 33.6 µM (inactive)
//
compound: CN(C)C(=O)/C=C/c1c[nH]c(=O)[nH]c1=O
GI50: > 500 µM (inactive)
//
compound: O=C1Oc2ccccc2N/C1=C/C(=O)c1ccc([N+](=O)[O-])cc1
GI50: > 100 µM (inactive)
//
compound: O=C1NC(=O)C(C(CC(=O)c2ccc(Cl)cc2)c2ccc(Cl)cc2)C(=O)N1 (stereo not given)
GI50: > 100 µM (inactive)
//
compound: Cc1c[n+]2c3ccccc3c3ccccc3c2s1.[O-][Cl+3]([O-])([O-])[O-]
GI50: 4.01 µM (inactive)

* * *

Tested on: NCI-H522
experiment: NCI tumour cell line growth inhibition, 48 h
The source made the active and inactive calls. Cut-off read from the data, not from the text of the source: active = GI50 up to about 1.1 µM and inactive = higher.
Some molecules, each annotated with its measured GI50.
property-name: GI50

molecule: CC1CC(=O)C2CC(CO)=CCCC2C1(C)CC/C(=C/CO)CO (stereo not drawn)
measured-on: NCI-H522
reported-result: 87.9 µM (inactive)
//
molecule: COc1ccc2c(C3(O)CCNCC3)c[nH]c2c1
measured-on: NCI-H522
reported-result: > 100 µM (inactive)
//
molecule: C#C[C@H]1CCCCCC1O (stereo partly drawn)
measured-on: NCI-H522
reported-result: > 100 µM (inactive)
//
molecule: CCNC(=O)Nc1cccc(NC(=O)NCC)n1
measured-on: NCI-H522
reported-result: > 100 µM (inactive)
//
molecule: CCOC(=O)c1c(-c2ccc(Br)cc2)ccn1C
measured-on: NCI-H522
reported-result: > 10 µM (inactive)
//
molecule: NS(=O)(=O)c1cc(C(=O)O)c(Cl)c([N+](=O)[O-])c1Cl
measured-on: NCI-H522
reported-result: > 100 µM (inactive)
//
molecule: CN(C)C(=O)OC1=CC2CCC(C1)N2C (stereo not drawn)
measured-on: NCI-H522
reported-result: > 100 µM (inactive)
//
molecule: COc1cc(/C=N/N=C(\N)NO)cc(OC)c1OC
measured-on: NCI-H522
reported-result: 34.8 µM (inactive)

* * *

Tested on: HCT-15
Some compounds, each annotated with its measured GI50.

compound: CS(=O)(=O)c1ccc(C(=O)O[C@@H]2C(=O)N3CC[C@H]4OC(O)[C@@H]2[C@H]43)cc1 (stereo not given in full)
unit-text: µM
reported-relation: >
GI50: 100
--
compound: CCOC(=O)c1cnc2oc(-c3ccc(OC)cc3)nn2c1=O
unit-text: µM
reported-relation: >
GI50: 100
--
compound: COc1cc2c(c(O)c1OC)-c1c(cc(OC)c(OC)c1OC)CC(C)C(C)C2 (stereo not given)
unit-text: µM
reported-relation: =
GI50: 33
--
compound: O=c1c2cc(-c3ccccc3)sc2nc2n1N=C(c1ccccc1)CS2
unit-text: µM
reported-relation: =
GI50: 84.3
--
compound: O=C(O)C1Cc2[nH]c3ccccc3c2C2CCCC12 (stereo not given)
unit-text: µM
reported-relation: >
GI50: 100
--
compound: CCCCCCCCCCCC(=O)OCC1OC(n2cc(F)c(=O)[nH]c2=O)C(N)C(O)C1O (stereo not given)
unit-text: µM
reported-relation: >
GI50: 100
--
compound: COc1ccc(N2C=Nn3c(nc4sc(C)c(C)c4c3=O)C2)cc1
unit-text: µM
reported-relation: >
GI50: 100
--
compound: Cn1c(=O)cc(NNc2ccc(Cl)c(Cl)c2)[nH]c1=O
unit-text: µM
reported-relation: =
GI50: 3.75
--
compound: C=C1C(=O)O[C@H]2C(=O)[C@H](C)CCC[C@@](C)(O)/C=C\C[C@@]3(C)O[C@@H]3C[C@@H]12
unit-text: µM
reported-relation: =
GI50: 11.5
--
compound: COc1cccc(-c2nccc3c(OCc4ccccc4)c(OC)c(OC)cc23)c1
unit-text: µM
reported-relation: =
GI50: 4.72

* * *

Tested on: SK-MEL-28
experiment: NCI tumour cell line growth inhibition, 48 h
Active and inactive are the calls of the source. Cut-off read from the data, not from the text of the source: active = GI50 up to about 1.1 µM and inactive = higher.
Some compounds, each annotated with its measured GI50.

compound: COc1cc(C(C)c2cc3c(cc2OCCCCOc2cc4c(cc2C(C)c2cc(OC)c(OC)c(OC)c2)OCO4)OCO3)cc(OC)c1OC (centres undefined)
GI50: 71 µM (inactive)
//
compound: COc1nn(Cc2ccccn2)c2ccc([N+](=O)[O-])cc12
GI50: > 100 µM (inactive)
//
compound: O/N=C1/COC(C(F)(F)F)(C(F)(F)F)C1
GI50: > 100 µM (inactive)
//
compound: C[N+](C)(C)CC1CCc2ccccc2C1=O (centres undefined)
GI50: 8.89 µM (inactive)
//
compound: CCC(C)NC1=NCC(C)S1 (centres undefined)
GI50: > 100 µM (inactive)
//
compound: COc1ccc(C2=Nc3ccccc3SC(C)C2)cc1OC (centres undefined)
GI50: 24.6 µM (inactive)
//
compound: O=c1c2cc(-c3ccccc3)sc2nc2n1N=C(c1ccccc1)CS2
GI50: 23.6 µM (inactive)
//
compound: C=C(C)C(=O)OC1C(C(C)CCCO)=C(CO)CC2OC(=O)C(=C)C21 (centres undefined)
GI50: 20 µM (inactive)
//
compound: N#Cc1c(N)nc(Sc2ccccc2N)c(C#N)c1-c1ccccc1
GI50: 28.2 µM (inactive)
//
compound: Nc1ncnc2c1ncn2CC(O)CO (centres undefined)
GI50: > 100 µM (inactive)
//
compound: C/C(=N\N(C)C)C(CN1CCCCC1)C(c1ccccc1)c1c(O)c2ccccc2oc1=O (centres undefined)
GI50: > 100 µM (inactive)
//
compound: O=S1(=O)OCCOS(=O)(=O)C1C1c2ccccc2-c2ccccc21
GI50: 67.6 µM (inactive)
//
compound: CC(C)CNC(=O)Cn1c2c(c3ccccc31)CCCC2
GI50: > 100 µM (inactive)
//
compound: CSC(=S)OC1C(CO[Si](C)(C)C(C)(C)C)OC2OC(C)(C)OC21 (centres undefined)
GI50: 40.6 µM (inactive)

* * *

Test system: SF-539
experiment: NCI tumour cell line growth inhibition, 48 h
Active and inactive are the calls of the source. Rule as the data show it: active = GI50 up to about 1.1 µM and inactive = higher.
Some compounds, each annotated with its measured GI50.

compound: C1CCN(C2OC3C(COC3N3CCCCC3)OC2OC2CCO[C@@H]2N2CCCCC2)CC1 (stereo not given in full)
measured-on: SF-539
GI50: 16.5 µM (inactive)
--
compound: CCOC(=O)c1ncoc1[C@H]1COC(C)(C)O1
measured-on: SF-539
GI50: > 100 µM (inactive)
--
compound: COc1ccccc1N1CCN(CCCN2C(C(=O)c3ccccc3)=C(O)c3c(C)cc(C)nc3S2(=O)=O)CC1
measured-on: SF-539
GI50: > 100 µM (inactive)
--
compound: NCCCN1CCN(CC(=O)O)CCN(CCCN)CCN(CC(=O)O)CC1
measured-on: SF-539
GI50: 68.1 µM (inactive)
--
compound: O=C(/C=C/c1ccccc1O)c1cccs1
measured-on: SF-539
GI50: > 100 µM (inactive)

* * *

Test system: HL-60
experiment: NCI tumour cell line growth inhibition, 48 h
Active and inactive are the calls of the source. No stated cut-off is given here; in the data, active = GI50 up to about 1.1 µM and inactive = higher.
Some compounds, each annotated with its measured GI50.

compound: OC1CN2CCS[C@H]2C(O)C1O (stereo partly specified)
GI50: > 100 µM (inactive)
//
compound: ClC1=C(Cc2ccccc2)Cc2ccc3c(c21)CCC3
GI50: 19.7 µM (inactive)
//
compound: O=c1[nH]nc(-c2ccccc2)n1/N=C/c1ccco1
GI50: > 100 µM (inactive)
//
compound: CN(Cc1cnc2nc(N)nc(N)c2n1)c1ccc(C(=O)NC(CCC(=O)NCCC(P(=O)(O)O)P(=O)(O)O)C(=O)O)cc1 (stereo unspecified)
GI50: 4.12 µM (inactive)
//
compound: NS(=O)(=O)c1cc(C(=O)O)c(Cl)c([N+](=O)[O-])c1Cl
GI50: > 100 µM (inactive)
//
compound: CN(C)/C(=N\C#N)N(Cc1ccccc1)Cc1ccccc1
GI50: 44.3 µM (inactive)
//
compound: COc1ccc(C)cc1C1CCC(=O)O1 (stereo unspecified)
GI50: > 100 µM (inactive)
//
compound: Nc1ccc2nc3n(c2c1)C(c1c(F)cccc1F)SC3 (stereo unspecified)
GI50: 45.3 µM (inactive)
//
compound: CN(C)Cc1cc(/N=N/c2ccccc2)ccc1O
GI50: 41.5 µM (inactive)
//
compound: O=C1c2ccccc2C(=O)c2c(NCCCN3CCOCC3)ccc(NCCCN3CCOCC3)c21
GI50: 2.45 µM (inactive)
//
compound: COc1cc(/C=C2\CCC(C)(CN(C)C)C2=O)cc(OC)c1OC (stereo unspecified)
GI50: 1.57 µM (inactive)

* * *

Tested on: OVCAR-3
experiment: NCI tumour cell line growth inhibition, 48 h
The source made the active and inactive calls. Cut-off read from the data, not from the text of the source: active = GI50 up to about 1.1 µM and inactive = higher.
Some compounds, each annotated with its measured GI50.
property-name: GI50

compound: NCCN1C(=O)c2ccccc2C1c1ccc(Cl)cc1 (stereo not given)
property-name: GI50
reported-result: > 100 µM (inactive)
--
compound: CSc1n[n+](C)cc(N)c1N
property-name: GI50
reported-result: > 100 µM (inactive)
--
compound: CC1=NN(C(=O)Cc2ccccc2)C(=O)/C1=C\C=C\c1ccccc1
property-name: GI50
reported-result: > 100 µM (inactive)
--
compound: CC(C)(C)C1CCC2c3c([nH]c4ccccc34)C3C(=O)N(c4ccc(C#N)cc4)C(=O)C3C2C1 (stereo not given)
property-name: GI50
reported-result: 16.4 µM (inactive)
--
compound: OCC1OC(n2nc(-c3ccccc3)nc2-c2cnccn2)C(O)C(O)C1O (stereo not given)
property-name: GI50
reported-result: > 100 µM (inactive)
--
compound: Cc1ccc(/N=N/c2c(O)ccc3cc(S(=O)(=O)O)ccc23)cc1
property-name: GI50
reported-result: > 100 µM (inactive)
--
compound: COc1ccc(OC)c2sc(N3C(=O)/C(=C/c4cccc([N+](=O)[O-])c4)N=C3c3ccccc3)nc12
property-name: GI50
reported-result: 35.6 µM (inactive)
--
compound: COC(=O)C[C@H](COCc1ccccc1)NC(=O)C[C@H](COCc1ccccc1)NC(=O)OC(C)(C)C
property-name: GI50
reported-result: 27.7 µM (inactive)
--
compound: CCOC(=O)CSc1cc[nH]c(=O)n1
property-name: GI50
reported-result: > 100 µM (inactive)
--
compound: CC1=C(C(=O)Nc2ccc([N+](=O)[O-])cc2)C(c2cccc([N+](=O)[O-])c2)C(C(=O)Nc2ccc([N+](=O)[O-])cc2)=C(C)N1
property-name: GI50
reported-result: 44.5 µM (inactive)
